biological target: EGFR (A767_dupASV) expressing Ba/F3 stable cell line (Homo sapiens, UniProt P00533, DUP767-769, cells depend on it); test: Cellular proliferation (Alamar Blue) assay, EGFR A767_dupASV Ba/F3; format: cell-based; conditions: 72 hr, read-out: A767 IC50
Sequence (P00533 with tags, fused parts or gaps DUP767-769): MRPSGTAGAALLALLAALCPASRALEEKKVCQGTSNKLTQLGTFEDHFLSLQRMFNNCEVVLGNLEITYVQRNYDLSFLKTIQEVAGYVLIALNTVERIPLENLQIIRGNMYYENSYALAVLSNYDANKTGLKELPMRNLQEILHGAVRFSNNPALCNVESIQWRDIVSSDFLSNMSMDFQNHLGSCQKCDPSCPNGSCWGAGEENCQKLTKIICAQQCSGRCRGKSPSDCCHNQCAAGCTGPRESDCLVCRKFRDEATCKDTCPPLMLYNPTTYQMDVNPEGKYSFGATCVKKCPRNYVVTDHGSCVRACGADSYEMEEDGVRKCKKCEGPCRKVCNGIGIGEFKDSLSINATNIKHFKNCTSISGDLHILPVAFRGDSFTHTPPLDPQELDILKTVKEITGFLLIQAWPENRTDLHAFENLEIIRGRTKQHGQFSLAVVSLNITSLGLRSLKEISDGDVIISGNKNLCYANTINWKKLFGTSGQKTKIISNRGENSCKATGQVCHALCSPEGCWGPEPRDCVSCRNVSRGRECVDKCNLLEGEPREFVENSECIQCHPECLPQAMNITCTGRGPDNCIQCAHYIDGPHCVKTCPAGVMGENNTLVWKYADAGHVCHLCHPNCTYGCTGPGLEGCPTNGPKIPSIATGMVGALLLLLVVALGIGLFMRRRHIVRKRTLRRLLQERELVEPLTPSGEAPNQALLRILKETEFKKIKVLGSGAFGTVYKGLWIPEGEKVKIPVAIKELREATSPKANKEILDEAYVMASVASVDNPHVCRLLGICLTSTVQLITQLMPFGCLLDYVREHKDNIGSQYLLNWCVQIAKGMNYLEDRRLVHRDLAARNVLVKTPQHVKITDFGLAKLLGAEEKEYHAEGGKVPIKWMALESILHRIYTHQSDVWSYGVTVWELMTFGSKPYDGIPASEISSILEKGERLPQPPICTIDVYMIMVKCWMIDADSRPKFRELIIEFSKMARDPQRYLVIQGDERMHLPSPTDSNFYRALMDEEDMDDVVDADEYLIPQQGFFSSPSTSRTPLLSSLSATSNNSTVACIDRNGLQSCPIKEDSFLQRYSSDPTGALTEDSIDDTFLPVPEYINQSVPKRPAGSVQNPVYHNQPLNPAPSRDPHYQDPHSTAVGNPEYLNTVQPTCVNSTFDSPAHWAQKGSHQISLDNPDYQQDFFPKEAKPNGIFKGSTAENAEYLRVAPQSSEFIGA
Counter-ions that a name gives are not always drawn.
Here, each record is paired with measured GI50 data.
Value Kind: GI50

Compound | Value Kind | Observed Result
C=CC(=O)Nc1cccc(Oc2nc(Nc3cnn(C)c3)cnc2C)c1 [Compound 158] | GI50 | > 10 µM
C=CC(=O)Nc1ccc(F)c(Nc2nc(Nc3cnn(C)c3)ncc2-c2cccc(NC(C)=O)c2)c1 [Compound 59] | GI50 | > 10 µM
C=CC(=O)Nc1ccc(F)c(Nc2nc(NC3CCN(C)CC3)ncc2-c2ccc(C(F)(F)F)cc2)c1 [Compound 42, trifluoroacetate] | GI50 | > 10 µM

---

molecular target: EGFR (A767_dupASV) expressing Ba/F3 stable cell line (Homo sapiens, UniProt P00533, DUP767-769, cells depend on it); test: Cellular proliferation (Alamar Blue) assay, EGFR A767_dupASV Ba/F3; format: cell-based; conditions: 72 hr, read-out: A767 IC50
Structures can show the parent of a compound that is named as a salt.
Value Kind: GI50 (µM)

Molecule | Value Kind | Relation Qualifier | Observed Result
C=CC(=O)Nc1ccc(F)c(Nc2nc(Nc3ccccc3)ncc2-c2ccc(C(F)(F)F)cc2)c1 [Compound 121] | GI50 | > | 10
C=CC(=O)Nc1cccc(Nc2nc(Nc3cnn(C)c3)ncc2-c2cccc(F)c2)c1 [Compound 115, trifluoroacetate] | GI50 | = | 0.039
C=CC(=O)Nc1ccc(F)c(Nc2nc(Nc3cnn(C)c3)ncc2-c2cccc3ccccc23)c1 [Compound 136, trifluoroacetate] | GI50 | = | 0.299
C=CC(=O)Nc1ccc(F)c(Nc2nc(Nc3cnn(C)c3)ncc2C2CC2)c1 [Compound 120, trifluoroacetate] | GI50 | = | 0.875
C=CC(=O)Nc1ccc(F)c(Oc2nc(Nc3cnn(C)c3)ncc2-c2ccc(C(F)(F)F)cc2)c1 [Compound 152] | GI50 | = | 0.3
C=CC(=O)Nc1ccc(F)c(Oc2nc(Nc3cnn(C)c3)ncc2Cl)c1 [Compound 166] | GI50 | = | 1.25
C=CC(=O)Nc1ccc(F)c(Nc2nc(Nc3cnn(C)c3)ncc2-c2cccc(OC(F)F)c2)c1 [Compound 143, trifluoroacetate] | GI50 | = | 0.3
C=CC(=O)Nc1cccc(F)c1CNc1nc(Nc2cnn(C)c2)ncc1Cl [Compound 173] | GI50 | > | 10

---

Some compounds, each annotated with its measured GI50.
biological target: HER2 (A775_G776insYVMA) expressing Ba/F3 stable cell line (Homo sapiens, UniProt P04626, DUP772-775, cells depend on it); test: Cellular proliferation (Alamar Blue) assay, HER2 A775_G776insYVMA Ba/F3; format: cell-based; settings: 72 hr, read-out: YVMA IC50
Sequence (P04626 with tags, fused parts or gaps DUP772-775): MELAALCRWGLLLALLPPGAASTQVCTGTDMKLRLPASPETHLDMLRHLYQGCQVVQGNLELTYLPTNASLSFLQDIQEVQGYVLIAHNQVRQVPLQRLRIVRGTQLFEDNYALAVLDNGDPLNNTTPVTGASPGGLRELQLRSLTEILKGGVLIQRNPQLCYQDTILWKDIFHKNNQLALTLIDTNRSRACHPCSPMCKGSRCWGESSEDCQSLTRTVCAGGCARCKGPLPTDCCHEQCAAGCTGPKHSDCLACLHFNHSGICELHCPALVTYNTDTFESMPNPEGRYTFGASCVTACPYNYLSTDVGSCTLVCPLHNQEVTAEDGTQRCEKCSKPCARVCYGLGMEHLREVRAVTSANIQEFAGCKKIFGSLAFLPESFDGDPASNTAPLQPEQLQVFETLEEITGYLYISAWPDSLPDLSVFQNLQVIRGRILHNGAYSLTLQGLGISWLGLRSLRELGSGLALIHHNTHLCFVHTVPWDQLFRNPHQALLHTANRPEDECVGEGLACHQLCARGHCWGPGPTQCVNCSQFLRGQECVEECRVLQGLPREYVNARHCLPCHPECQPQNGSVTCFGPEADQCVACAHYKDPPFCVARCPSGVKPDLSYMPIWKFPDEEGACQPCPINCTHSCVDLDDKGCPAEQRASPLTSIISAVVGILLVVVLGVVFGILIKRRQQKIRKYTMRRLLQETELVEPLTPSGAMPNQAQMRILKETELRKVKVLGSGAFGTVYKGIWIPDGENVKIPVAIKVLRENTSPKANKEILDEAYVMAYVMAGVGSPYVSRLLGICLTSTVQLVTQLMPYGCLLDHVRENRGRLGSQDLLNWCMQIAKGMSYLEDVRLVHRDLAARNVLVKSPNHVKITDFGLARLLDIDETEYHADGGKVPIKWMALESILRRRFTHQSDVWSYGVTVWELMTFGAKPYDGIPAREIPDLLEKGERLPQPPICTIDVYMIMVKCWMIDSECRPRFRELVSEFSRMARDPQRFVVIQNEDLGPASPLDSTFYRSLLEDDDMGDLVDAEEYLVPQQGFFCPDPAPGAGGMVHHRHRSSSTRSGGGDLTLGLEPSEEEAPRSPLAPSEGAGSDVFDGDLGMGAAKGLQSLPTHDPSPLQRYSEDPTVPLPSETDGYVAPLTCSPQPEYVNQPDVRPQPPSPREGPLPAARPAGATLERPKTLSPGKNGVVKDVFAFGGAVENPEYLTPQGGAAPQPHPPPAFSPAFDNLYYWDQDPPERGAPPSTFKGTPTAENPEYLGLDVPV
Where a name gives a salt, the structure may show the parent alone.
Value Kind: GI50 (nM)

Compound | Relation Qualifier | Observed Result
C=CC(=O)Nc1ccc(-c2ccccc2)c(Nc2ccnc(Nc3cnn(C)c3)n2)c1 [Compound 175] | > | 10000
C=CC(=O)Nc1ccc(Cl)c(Nc2ccnc(Nc3cnn(C)c3)n2)c1 [Compound 165] | = | 9930
C=CC(=O)Nc1ccc(F)c(Nc2nc(Nc3cnn(C)c3)ncc2-c2cccc(NC(C)=O)c2)c1 [Compound 59] | ≥ | 10000
C=CC(=O)Nc1ccc(F)c(Nc2nc(Nc3cnn(C4CCN(C)CC4)c3)ncc2-c2ccc(C(F)(F)F)cc2)c1 [Compound 85] | = | 378
C=CC(=O)Nc1ccc(F)c(Nc2nc(Nc3cnn(C)c3)ncc2-c2ccc3ccccc3c2)c1 [Compound 149, trifluoroacetate] | = | 501
C=CC(=O)Nc1cc(Br)cc(Nc2nc(Nc3cnn(C)c3)ncc2-c2ccc(C(F)(F)F)cc2)c1 [Compound 290] | = | 2920
C=CC(=O)Nc1cccc(Oc2nc(Nc3cnn(C)c3)ncc2-c2ccc(F)nc2)c1 [Compound 109] | = | 344
C=CC(=O)Nc1ccc(OC)c(Oc2nc(Nc3cnn(C4CCN(C)CC4)c3)ncc2Cl)c1 [Compound 170] | = | 9710
C=CC(=O)Nc1ccc(F)c(Nc2nc(Nc3cnn(C)c3)ncc2-c2ccc(N3CCOCC3)cc2)c1 [Compound 94] | = | 1270
C=CC(=O)Nc1ccc(F)c(Nc2nc(Nc3cnn(C)c3)ncc2-c2ccc(Br)cc2)c1 [Compound 75, trifluoroacetate] | = | 100
C=CC(=O)Nc1ccc(F)c(Nc2nc(Nc3cn(CCO)nc3Cl)ncc2-c2ccc(C(F)(F)F)cc2)c1 [Compound 241] | = | 343
C=CC(=O)Nc1ccc(F)c(Nc2nc(Nc3cn(C)nc3C(F)(F)F)ncc2-c2ccc(C(F)(F)F)cc2)c1 [Compound 146, trifluoroacetate] | = | 6130
C=CC(=O)Nc1ccc(F)c(N(C)c2nc(Nc3cnn(C)c3)ncc2-c2ccc(C(F)(F)F)cc2)c1 [Compound 228] | = | 1250
C=CC(=O)Nc1ccc(F)c(Nc2cc(Nc3cnn(C)c3)ncc2-c2ccc(C(F)(F)F)cc2)c1 [Compound 210] | = | 3580
C=CC(=O)Nc1ccc(F)c(Nc2nc(Nc3cnn(CC(C)(C)O)c3)ncc2Br)c1 [Compound 273] | = | 2630
C=CC(=O)Nc1ccc(F)c(Nc2nc(Nc3cnn(C)c3)ncc2-c2ccc3[nH]ncc3c2)c1 [Compound 277] | = | 645
C=CC(=O)Nc1ccc(F)c(Nc2nc(Nc3cnn(C)c3)ncc2-c2ccc3[nH]ccc3c2)c1 [Compound 97] | = | 403
C=CC(=O)Nc1ccc(F)c(Nc2nc(Nc3cnn(C)c3)ncc2-c2ccccc2N(C)C)c1 [Compound 267] | > | 10000
CC(NC(=O)c1cnc(Nc2cnn(C)c2)nc1Nc1cccc(NC(=O)/C=C/CN(C)C)c1)c1ccccc1 (stereo not shown) [Compound 35] | > | 10000
C=CC(=O)Nc1ccc(F)c(Nc2nc(Nc3cnn(C)c3)ncc2-c2ccc3ccoc3c2)c1 [Compound 299] | = | 339
C=CC(=O)Nc1ccc(F)c(Nc2nc(Nc3cnn(C)c3)ncc2-c2cncnc2)c1 [Compound 147, trifluoroacetate] | = | 100
C=CC(=O)Nc1ccc(F)c(Oc2nc(Nc3cnn(C)c3)ncc2-c2ccc(C(F)(F)F)cc2)c1 [Compound 152] | = | 651

Measured values drawn from patent US12686673B2 for this set.
